Molecular target: nuclear factor-kappa B (NF-kB)-inducing kinase (NIK) (Homo sapiens, UniProt Q99558)
Construct: made in house; host or cells: baculovirus-infected insect cells
Sequence (Q99558 whole entry): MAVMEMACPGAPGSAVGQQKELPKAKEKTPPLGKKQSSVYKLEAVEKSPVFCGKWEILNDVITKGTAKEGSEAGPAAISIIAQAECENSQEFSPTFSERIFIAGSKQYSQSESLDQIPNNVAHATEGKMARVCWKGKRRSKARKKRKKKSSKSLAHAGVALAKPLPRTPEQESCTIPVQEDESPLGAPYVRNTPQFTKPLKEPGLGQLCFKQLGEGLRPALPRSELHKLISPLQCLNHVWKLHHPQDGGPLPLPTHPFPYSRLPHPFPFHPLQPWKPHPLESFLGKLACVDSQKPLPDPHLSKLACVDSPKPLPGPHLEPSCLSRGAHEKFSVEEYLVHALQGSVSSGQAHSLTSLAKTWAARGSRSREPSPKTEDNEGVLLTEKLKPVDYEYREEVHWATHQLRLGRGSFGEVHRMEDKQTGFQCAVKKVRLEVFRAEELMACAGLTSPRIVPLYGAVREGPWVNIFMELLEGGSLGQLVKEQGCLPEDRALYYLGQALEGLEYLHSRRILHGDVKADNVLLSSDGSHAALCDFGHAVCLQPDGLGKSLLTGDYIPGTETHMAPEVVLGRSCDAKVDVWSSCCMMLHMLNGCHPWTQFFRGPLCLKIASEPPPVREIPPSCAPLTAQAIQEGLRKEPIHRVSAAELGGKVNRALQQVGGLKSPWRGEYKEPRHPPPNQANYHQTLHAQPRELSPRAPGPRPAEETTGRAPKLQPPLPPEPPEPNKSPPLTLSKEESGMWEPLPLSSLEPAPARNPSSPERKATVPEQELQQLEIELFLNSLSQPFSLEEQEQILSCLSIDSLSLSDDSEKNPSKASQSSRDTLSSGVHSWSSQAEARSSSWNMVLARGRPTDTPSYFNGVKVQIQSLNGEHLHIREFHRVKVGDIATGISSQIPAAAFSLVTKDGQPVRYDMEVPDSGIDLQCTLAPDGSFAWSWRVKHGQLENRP
Test: NIK enzyme inhibition assay (Transcreener ADP fluorescence polarization, NIK ADP-FP)
Assay type: biochemical
Would you kindly list Ki for each of these compounds?
Give just the numeric value; nM need not be written.

Data request, read-out Ki, for `CN1CC[C@@](O)(C#Cc2cccc(-c3nc(C(N)=O)nc4ccsc34)c2)C1=O`
0.184

Try the compound `CN1CC[C@@](O)(C#Cc2cc3c(c(-c4nccc(C(N)=O)n4)c2)CCN3)C1=O`
0.14

Try the compound `CN1CC[C@@](O)(C#Cc2cccc(-c3nc(C(N)=O)cc(N4CC[C@H]4c4cccs4)n3)c2)C1=O`
3.34

Try the compound NC(=O)c1nc(-c2cccc(C#C[C@]3(O)CCOC3=O)c2)ccc1N (single isomer, unassigned)
4.07

Try the compound `CN1CC[C@@](O)(C#Cc2cccc(-c3nc(C(N)=O)cn4c(C(F)(F)F)cnc34)c2)C1=O`
2.12

Try the compound `CN1CC[C@@](O)(C#Cc2ccc(F)c(-c3ccc(NC4COC4)c(C(N)=O)n3)c2)C1=O`
0.05

Try the compound `CN1CC[C@@](O)(C#Cc2cccc(-c3cc(-c4ccnn4C)nc(C(N)=O)n3)c2)C1=O`
0.67

Try the compound `CN1CC[C@@](O)(C#Cc2cccc(-c3nc4c(c(C(N)=O)n3)CC(C)(C)CC4)c2)C1=O`
2.23

Try the compound `CN1CC[C@@](O)(C#Cc2cccc(-c3nc(C(N)=O)c4sccc4n3)c2)C1=O`
0.12

Try the compound `CCn1ncc2c(-c3cccc(C#C[C@]4(O)CCN(C)C4=O)c3)nc(C(N)=O)cc21`
1.48

Try the compound `COc1cc(-c2cccc(C#C[C@]3(O)CCN(C)C3=O)c2)nc(C(N)=O)n1`
0.5

Try the compound `CN1CC[C@@](O)(C#Cc2cc(-c3ccc(N)c(C(N)=O)n3)c(F)cc2F)C1=O`
0.05

Try the compound `CC(C)c1cc(C(N)=O)nc(-c2cccc(C#C[C@]3(O)CCN(C)C3=O)c2)n1`
0.54

Try the compound `Cc1cc(C(N)=O)nc(-c2cccc(C#C[C@]3(O)CCN(C)C3=O)c2)c1F`
0.67

Try the compound `CN1CC[C@@](O)(C#Cc2cccc(-c3cc(OC4COC4)cc(C(N)=O)n3)c2)C1=O`
0.81

Hey, just so you know, these numbers are from patent US20160185797A1.
